Species on record: Homo sapiens
Experiment: Compound was evaluated for the inhibitory activity against human platelet aggregation by COL/ADP cartridges at a concentration of 2 x 10 e-3 M
Format: functional
Recorded inhibition at 2000 µM values for a group of molecules are listed next.
Express your answer in %, writing the number without its unit.

Reference set, count: 3
{"molecule": "Cc1ccc(C)c(OCCCC(C)(C)C(=O)O)c1", "property": "inhibition at 2000 µM", "reading": 2.5}
{"molecule": "Cc1ccc(C)c(OCCCC(C)C(=O)O)c1 (single isomer, unassigned; (+))", "property": "inhibition at 2000 µM", "reading": 0}
{"molecule": "CC(=O)Oc1ccccc1C(=O)O", "property": "inhibition at 2000 µM", "reading": 0}

Next molecule, inhibition at 2000 µM to be filled in.
Challenge: Query: inhibition at 2000 µM; subject: CCC(CCCOc1cc(C)ccc1C)C(=O)O (stereo in doubt; 5b)
Response given: 0
